# IC50 annotations
Target: Tyrosine-protein phosphatase non-receptor type 1 (Homo sapiens)
Sequence (P18031 whole entry): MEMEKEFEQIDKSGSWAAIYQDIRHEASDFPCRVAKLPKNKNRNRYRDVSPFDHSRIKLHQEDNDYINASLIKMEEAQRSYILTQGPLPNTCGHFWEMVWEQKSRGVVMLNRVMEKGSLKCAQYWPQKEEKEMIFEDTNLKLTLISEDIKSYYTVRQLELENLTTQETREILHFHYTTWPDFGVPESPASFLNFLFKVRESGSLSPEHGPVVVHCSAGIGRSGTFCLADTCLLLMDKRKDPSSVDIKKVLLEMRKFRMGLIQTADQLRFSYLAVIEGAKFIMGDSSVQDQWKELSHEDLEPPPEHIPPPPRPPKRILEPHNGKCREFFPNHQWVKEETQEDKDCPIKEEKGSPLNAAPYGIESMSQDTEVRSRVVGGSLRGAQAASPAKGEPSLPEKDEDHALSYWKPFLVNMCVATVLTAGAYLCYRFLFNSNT
Please give a number only; it is taken to be in nM.

{"columns": ["Mol Smiles", "IC50 (nM)"],
 "data": [
  ["CS(=O)(=O)c1ccc(CSc2nnc(NC(=O)c3ccc(/C=C4\\SC(=O)NC4=O)cc3)s2)cc1", 1410],
  ["Cc1ccc(CSc2nnc(NC(=O)c3ccc(/C=C4/SC(=O)NC4=O)cc3)s2)cc1", 880],
  ["COC(=O)c1cccc(CSc2nnc(NC(=O)c3ccc(/C=C4/SC(=O)NC4=O)cc3)s2)c1", 1120],
  ["O=C1NC(=O)/C(=C/c2ccc(C(=O)Nc3nnc(SCc4ccc(-c5ccccc5)cc4)s3)cc2)S1", 1470]
]}

C[C@H](CCC(=O)O)[C@H]1CC[C@H]2[C@@H]3CC[C@@H]4C[C@H](O)CC[C@]4(C)[C@H]3CC[C@]12C has a reported IC50 of 9620

O=C1NC(=O)/C(=C\c2ccc(C(=O)Nc3nnc(SCc4cccc(OC(F)(F)F)c4)s3)cc2)S1 has a reported IC50 of 1480

O=C1NC(=O)/C(=C\c2ccc(C(=O)Nc3nnc(SCc4cccc(Cl)c4)s3)cc2)S1 has a reported IC50 of 1640

O=C1NC(=O)/C(=C/c2ccc(C(=O)Nc3nnc(SCc4ccc(F)cc4F)s3)cc2)S1 has a reported IC50 of 1240

---

# IC50 annotations
Molecular target: Tyrosine-protein phosphatase non-receptor type 1 (Homo sapiens, UniProt P18031)
Please give a number only; it is taken to be in nM.

{"columns": ["Mol Smiles", "Target Desc", "Unit Label", "Value Reported"],
 "data": [
  ["O=C1NC(=O)/C(=C\\c2ccc(C(=O)Nc3nnc(SCc4ccccc4Br)s3)cc2)S1", "Tyrosine-protein phosphatase non-receptor type 1 (Homo sapiens, UniProt P18031)", "nM", 1870],
  ["O=C1NC(=O)/C(=C\\c2ccc(C(=O)Nc3nnc(SCc4ccccc4-c4ccccc4)s3)cc2)S1", "Tyrosine-protein phosphatase non-receptor type 1 (Homo sapiens, UniProt P18031)", "nM", 3560],
  ["O=C1NC(=O)/C(=C/c2ccc(C(=O)Nc3nnc(SCc4ccc5ncccc5c4)s3)cc2)S1", "Tyrosine-protein phosphatase non-receptor type 1 (Homo sapiens, UniProt P18031)", "nM", 980],
  ["COC(=O)c1ccc(CSc2nnc(NC(=O)c3ccc(/C=C4/SC(=O)NC4=O)cc3)s2)cc1", "Tyrosine-protein phosphatase non-receptor type 1 (Homo sapiens, UniProt P18031)", "nM", 650],
  ["O=C1NC(=O)/C(=C\\c2ccc(C(=O)Nc3nnc(SCc4cccc(C(F)(F)F)c4)s3)cc2)S1", "Tyrosine-protein phosphatase non-receptor type 1 (Homo sapiens, UniProt P18031)", "nM", 1070],
  ["COC(=O)c1ccccc1CSc1nnc(NC(=O)c2ccc(/C=C3/SC(=O)NC3=O)cc2)s1", "Tyrosine-protein phosphatase non-receptor type 1 (Homo sapiens, UniProt P18031)", "nM", 1210],
  ["O=C1NC(=O)/C(=C/c2ccc(C(=O)Nc3nnc(SCc4ccc(C(F)(F)F)cc4)s3)cc2)S1", "Tyrosine-protein phosphatase non-receptor type 1 (Homo sapiens, UniProt P18031)", "nM", 910],
  ["O=C1NC(=O)/C(=C\\c2ccc(C(=O)Nc3nnc(SCc4ccccc4)s3)cc2)S1", "Tyrosine-protein phosphatase non-receptor type 1 (Homo sapiens, UniProt P18031)", "nM", 1270]
]}

With Tyrosine-protein phosphatase non-receptor type 1 (Homo sapiens, UniProt P18031) as the test system, O=C1NC(=O)/C(=C\c2ccc(C(=O)Nc3nnc(SCc4ccccc4Cl)s3)cc2)S1 showed IC50 of 2910

With Tyrosine-protein phosphatase non-receptor type 1 (Homo sapiens, UniProt P18031) as the test system, O=C1NC(=O)/C(=C\c2ccc(C(=O)Nc3nnc(SCc4ccccc4F)s3)cc2)S1 showed IC50 of 1850

With Tyrosine-protein phosphatase non-receptor type 1 (Homo sapiens, UniProt P18031) as the test system, O=C1NC(=O)/C(=C/c2ccc(C(=O)Nc3nnc(SCc4ccc5ccccc5c4)s3)cc2)S1 showed IC50 of 3770

With Tyrosine-protein phosphatase non-receptor type 1 (Homo sapiens, UniProt P18031) as the test system, O=C1NC(=O)/C(=C/c2ccc(C(=O)Nc3nnc(SCc4ccc(F)c(Cl)c4)s3)cc2)S1 showed IC50 of 820

With Tyrosine-protein phosphatase non-receptor type 1 (Homo sapiens, UniProt P18031) as the test system, CC(C)(C)c1ccc(CSc2nnc(NC(=O)c3ccc(/C=C4\SC(=O)NC4=O)cc3)s2)cc1 showed IC50 of 1350

With Tyrosine-protein phosphatase non-receptor type 1 (Homo sapiens, UniProt P18031) as the test system, O=C1NC(=O)/C(=C\c2ccc(C(=O)Nc3nnc(SCc4ccc([N+](=O)[O-])cc4)s3)cc2)S1 showed IC50 of 1820
